Data provenance is paper PMC4336329.

- target.desc: human ether-à-go-go-related gene (hERG) potassium channel (human);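 also: peak tail current of the secondary pulse compared with the same well before compound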
- Sequence (Q12809 whole entry, looked up): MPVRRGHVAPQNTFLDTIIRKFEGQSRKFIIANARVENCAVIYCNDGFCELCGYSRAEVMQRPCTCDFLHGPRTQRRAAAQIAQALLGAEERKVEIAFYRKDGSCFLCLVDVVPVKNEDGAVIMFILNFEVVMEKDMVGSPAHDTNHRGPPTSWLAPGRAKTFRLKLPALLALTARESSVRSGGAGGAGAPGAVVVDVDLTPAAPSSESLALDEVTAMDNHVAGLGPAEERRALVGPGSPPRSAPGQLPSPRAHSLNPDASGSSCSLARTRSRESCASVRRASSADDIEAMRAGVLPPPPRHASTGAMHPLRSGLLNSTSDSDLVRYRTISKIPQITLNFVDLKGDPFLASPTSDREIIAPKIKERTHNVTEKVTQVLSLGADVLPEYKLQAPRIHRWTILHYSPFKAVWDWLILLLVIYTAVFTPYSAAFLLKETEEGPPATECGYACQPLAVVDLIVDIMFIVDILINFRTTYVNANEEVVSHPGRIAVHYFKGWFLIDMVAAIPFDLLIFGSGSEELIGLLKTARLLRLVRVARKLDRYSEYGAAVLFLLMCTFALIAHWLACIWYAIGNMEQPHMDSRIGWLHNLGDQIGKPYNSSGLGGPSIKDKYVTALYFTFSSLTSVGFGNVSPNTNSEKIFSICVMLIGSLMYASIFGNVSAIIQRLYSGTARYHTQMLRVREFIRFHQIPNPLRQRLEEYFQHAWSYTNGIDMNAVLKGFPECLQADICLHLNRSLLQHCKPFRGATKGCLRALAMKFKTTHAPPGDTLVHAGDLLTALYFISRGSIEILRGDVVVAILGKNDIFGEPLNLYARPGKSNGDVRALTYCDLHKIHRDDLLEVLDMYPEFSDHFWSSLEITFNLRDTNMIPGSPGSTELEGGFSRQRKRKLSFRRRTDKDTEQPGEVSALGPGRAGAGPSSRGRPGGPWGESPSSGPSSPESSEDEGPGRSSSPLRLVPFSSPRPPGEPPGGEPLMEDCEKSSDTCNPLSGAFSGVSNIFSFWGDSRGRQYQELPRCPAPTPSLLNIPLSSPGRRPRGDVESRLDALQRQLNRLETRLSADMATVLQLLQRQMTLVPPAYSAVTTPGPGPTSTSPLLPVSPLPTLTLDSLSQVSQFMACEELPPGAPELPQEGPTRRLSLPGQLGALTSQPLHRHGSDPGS
- assay.protocol: primary screen, population patch clamp on CHO cells stably expressing hERG; higher = less effect of the substance
Hit rate of the full screen: of about 310,000 compounds, about 14,000 (4.5%) showed an effect of 50% or more. The effect is printed as a negative number. This excerpt belongs to a sample that is enriched for strong results.
List of hERG current change (%, negative = inhibition) at 10uM values.
readout.name: hERG current change (%, negative = inhibition) at 10uM (%)

molecule=COC(=O)[C@H](CCSC)NC(=O)Nc1ccc(C)c(C)c1 unit_descriptor=% result=-83.6
molecule="Cc1ccc(-c2ccc(=O)n(CC(=O)NCCN3C(C)CCCC3C)n2)cc1 (stereo not drawn)" unit_descriptor=% result=0.00388
molecule="CCOC(=O)C1=C(C)N(c2ccc(Cl)cc2)C(=O)NC1c1cccc([N+](=O)[O-])c1 (stereo not drawn)" unit_descriptor=% result=-24.8
molecule=Br.O=[N+]([O-])c1ccc(CSC2=NCCN2)cc1 unit_descriptor=% result=-15.3
molecule=Cc1cccc2c(=O)oc(-c3ccccc3Cl)nc12 unit_descriptor=% result=14.2
molecule="O=C(NCC1CCCN1S(=O)(=O)c1cccs1)c1cccc([N+](=O)[O-])c1 (stereo not drawn)" unit_descriptor=% result=-24.5
molecule=COc1cc(OC)cc(C(=O)N[C@H](C(=O)Nc2ccc3c(c2)OCO3)C(C)C)c1 unit_descriptor=% result=11
molecule=CCOC(=O)C1(CCOc2ccccc2)CCN(Cc2ccc(CO)o2)CC1 unit_descriptor=% result=-73.8
molecule=O=C(Nc1nc(-c2ccc(F)cc2)cs1)c1cnccn1 unit_descriptor=% result=-0.514
molecule=O=C(Nc1ncc(S(=O)(=O)c2ccc([N+](=O)[O-])cc2)s1)c1cccnc1 unit_descriptor=% result=-2.29
molecule=COc1ccc(CSc2ncn[nH]2)cc1[N+](=O)[O-] unit_descriptor=% result=2.83
molecule=COc1ccc(NC(=O)CN2C(=O)NC3(CCCC3)C2=O)cc1 unit_descriptor=% result=13.7
molecule=Cc1cccc(OCC(=O)Nc2cccc(C(=O)NCC(C)C)c2)c1 unit_descriptor=% result=-17.4
molecule=CCOC(=O)C1(CCOc2ccccc2)CCN(Cc2ccc(C)o2)CC1 unit_descriptor=% result=-75
molecule="Cc1ccc(C)c(S(=O)(=O)N2CCCC2CNC(=O)c2ccc([N+](=O)[O-])cc2)c1 (stereo not drawn)" unit_descriptor=% result=-81.8
molecule=CC(=O)Nc1ccc(S(=O)(=O)N(CC(=O)Nc2cc(C)on2)Cc2ccc(F)cc2)cc1 unit_descriptor=% result=-11.5
molecule="O=C(N/N=C/c1c[nH]c2ccccc12)C1CC1c1ccccc1 (stereo not drawn)" unit_descriptor=% result=-4.47
molecule=O=C1NCCc2c1[nH]c1ccccc21 unit_descriptor=% result=-77
molecule=Cn1c(SCc2ccc([N+](=O)[O-])cc2)nnc1-c1cccnc1 unit_descriptor=% result=-18
molecule="CC1Sc2ccc(S(=O)(=O)NCc3ccccc3)cc2NC1=O (stereo not drawn)" unit_descriptor=% result=1.74
molecule="Cn1c(SCC2CCCO2)nnc1-c1cccc([N+](=O)[O-])c1 (stereo not drawn)" unit_descriptor=% result=8.76
molecule=CN(C)C(N)=NCCC[C@H](N)C(=O)O.Cl unit_descriptor=% result=9.67
molecule=COCCSc1ccccc1C(=O)N1CCN(c2ccccc2OC)CC1 unit_descriptor=% result=8.73
molecule="Cn1c(SCC2CCCO2)nnc1-c1ccc([N+](=O)[O-])cc1 (stereo not drawn)" unit_descriptor=% result=-63.8
